These data points were gathered from the supplement of paper PMC9170038.

- Test system: MS2 coat protein
- protocol: apparent KD of MS2 coat protein; higher = weaker reporter binding
- protocolConditions: Eterna round: R107; input ligand: tryptophan 2.4 mM
parameterMeasured: apparent KD of MS2 coat protein (nM)
Give bare numbers, in nM.

Below are worked cases with known answers.
CUUACACAUGAGGAUCACCCAUGUCAUGAUACCAGCCAAUACACUGGCCCUUGGCAGCAUCUCAGCCUCAGCUACAUUGACUGAC [theeternabot_sameState_MS2_Theo_A_2]; 17.8
GGGUACAUCGCGGCCGCCACUCAUGUAAAUGCAUGAGGAUCACCCAUGCCGAUGGAGACAUCGGAGAGGACCGGGUGAUGUACCG; 33.6

Query GGCUAGUGCAUCGAUACCAGCUACAUGAGGAUCACCCAUGUAGGAAGGGUGGUACUCGAUAGCCCUUGGCAGCGAACACCUCCGG [Quoran] yields apparent KD of MS2 coat protein of 18.8

----------
- Tested on: K4 kissing-loop RNA reporter;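 also: bound reporter read as fluorescence of individual clusters on recovered sequencing chips by microscopy, with normalized cluster intensities fitted with a binding model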
- protocol: apparent KD of K4 kissing-loop reporter; higher = weaker reporter binding
- protocolConditions: Eterna round: R107; input ligand: none
parameterMeasured: apparent KD of K4 kissing-loop reporter (nM)
Give bare numbers, in nM.

UUCUCUCAGGCACGCGAGUGAUGUUCGCGGCGAGGACCGGUACGGCCGCCACUCGCGCCUGAGAGAGGUUAUCAAAGAUAGCCUU [whbob_SS_tryp_A]; 94.7

Could you report apparent KD of K4 kissing-loop reporter for every entry in the following list?
1. UGACUGGAUGGAAGGAGCGCUAAACUCCUAGUGAUGUUAGGGAUACGAGACAAAGUCUUGAAGCAGGUAGGUCGCCAUCUAGUCU [FiskerMod 10 - Jieux - Same State - Arginine B]
2. AUUUAAUUAACUGAUACCAGACUUUUUGUUUUGUAUAUUACUAGUGAUGUUAGUGUUUCUGUCCCUUGGCAGCAGUAUCUACUUA [JR_ExcTheophyB_Sub016]

Data returned:
144
225

----------
- Tested on: MS2 coat protein
- protocol: apparent KD of MS2 coat protein; designed switch direction (-1 OFF switch, 1 ON switch): -1; higher = weaker reporter binding
- protocolConditions: Eterna round: R95; input ligand: FMN 200 uM
parameterMeasured: apparent KD of MS2 coat protein (nM)
Numbers only, in nM.

Could you report apparent KD of MS2 coat protein for every entry in the following list?
1. GGGCAGUCAGGAUAUACAUGAGGAUCACCCAUGUUGAGAUGUGAAAGGGCGGGAGUAGGUAGAAGGGACGAGAG [JR_Exclu3_Sub041] (puzzle: Exclusion 3)
2. GGUCUGCGAGGAUAUACAUGAGGAUCACCCAUGUGCGUGAUACUAGUGAGGUCGGUUGGUAGAAGGCGCGGACG [JL-ex3-2.08 salish99 mod] (puzzle: Exclusion 3)
3. AGUACUAACACGUAAGUGUUAGUACUAUAAGCUUGUGUUACAUGAGGAUCACCCAUGUCCUCAUAAGCUCGUCUUAA [Mat - Sensor v3 - Turn-off var 2 - D71] (puzzle: Sensor v3, turn-off variant 2)
4. GAUUAUGCGAGCUUUAGGGACAUGAGGAUCACCCAUGUUCGUCUUAUUGAUCUGGAUGCACUGACAUACCUAAAUCU [JMF 80] (puzzle: Sensor v3, turn-off variant 1)
5. AAUAAGCUAGGAUAUACAUGAGGAUCACCCAUGUCCACGCUCUGGAGGGCUGAAUGAUGUAGAAGGAGCAGUGG [Zabier] (puzzle: Exclusion 3)
6. UAUUCUAGAUAGGAUAUACUUUUUUUUUUUUUCGUAGAAGGAUCUACAUGAGGAUCACCCAUGUUAACAGCAGU [JR_E6_Sub010] (puzzle: Exclusion 6)
7. GAGGGACAUGAGGAUCACCCAUGUGAGGAUAUGUGAGAAGGAUUGGAGAGAAUAAGAAACAGAAGGCGCUGUAG [JR_Exclu1_Sub088] (puzzle: Exclusion 1)

Data returned:
[27.4, 128, 34.3, 29, 17.2, 66.5, 107]

Could you report apparent KD of MS2 coat protein for every entry in the following list?
1. AGUAGAUCUACGCUUGCGUGGAUCUGCAAGGCAGGUGUUACAUGAGGAUCACCCAUGUCCUCAUUUGCUCGUCUUAG [JL turnoff v2 99.07] (puzzle: Sensor v3, turn-off variant 2)
2. UAGGUGUGAGGAUAUGGUAAAGAUAAGAUGAUGAAAGAACUCCAGAAGGCACAUGAGGAUCACCCAUGUAGAAG [Mat - Exclusion 4 - Mod of JL - D30] (puzzle: Exclusion 4)
3. AGUAGUAGUAUCCGGUCCUACAUGAGGAUCACCCAUGUAGCUAGACGUGCACGCGAUGCUCGUCAGACUACCAGAUG [salish99_TOv1_r3_045] (puzzle: Sensor v3, turn-off variant 1)

Data returned:
[358, 27.9, 48.6]

----------
Hi there, I'd appreciate the recorded apparent KD of MS2 coat protein for every entry that follows.
- Tested on: MS2 coat protein
- protocol: apparent KD of MS2 coat protein; designed switch direction (-1 OFF switch, 1 ON switch): 1; higher = weaker reporter binding
- protocolConditions: input ligand: none
Numbers only, in µM.

CUGUAUCACGGAGGAUAUGGGCUGAGACCAGGGCAACCCUGGUCAACAUGAGGAUCACCCAUGUCCCAGAAGGCCGCGAUGCUA [Geisorqu] (Eterna round: R96, puzzle: Same State NG 2); 0.137

Could you report apparent KD of MS2 coat protein for every entry in the following list?
1. UAAUUAAAGCAAGGAUAUCACGUCGUUUAGACGUGAGAAGGUGCUCCUUACAUGAGGAUCACCCAUGUAUAACAUGAAUAAUUA [SSNG1/10-B3] (Eterna round: R96, puzzle: Same State NG 1)
2. GAGGGACAGACCAACAUGAGGAUCACCCAUGUCCUCGCAGUUCAGGAUAUCUGGAGGAAGAAGAAAGAGAAGGGAAGGUGAACC [AK SSNG3-V2-35] (Eterna round: R96, puzzle: Same State NG 3)
3. AUAAAACACAUGAGGAUCACCCAUGUGGCCGAAGAAGGCACACAGGAUAUCAAGCAACUAAAGCUUGAGAAGGGUGAGACAAAA [Quistera] (Eterna round: R96, puzzle: Same State NG 3)
4. AGAUCAUGACGAGGAUAUGGUACAUGAGGAUCACCCAUGUAUGUACUAUAACCCGUAUGAGGAAUCCAGAAGGCGUCGUGGUCA [JL SSNG2 1.17] (Eterna round: R96, puzzle: Same State NG 2)

Data returned:
[0.656, 0.12, 0.0923, 0.0859]

----------
- Tested on: MS2 coat protein
- protocol: apparent KD of MS2 coat protein; higher = weaker reporter binding
- protocolConditions: Eterna round: R107; input ligand: tryptophan 2.4 mM
parameterMeasured: apparent KD of MS2 coat protein (nM)
One number for each entry, in nM.

Below are worked cases with known answers.
AAAAUAUAGACGGCCGCCACUAUAAUCAUGAGGAACAUGAGGAUCACCCAUGUAUGAGGAUCACCUAGGACCGGGUCAUAUAAAA [#24 Exclusion Tryptophan B]; 25.6
UCUUUCUAUUGUGAUACCAGACGUACAUGAGGAUCACCCAUGUUUCAUUCUUGUUUUAAAGUCCCUUGGCAGCACUAUUUGUUCG [JR_Nu_ExcTheophyB_Sub028]; 15.9
AAGAGACAUGAGGAUCACCCAUGUGUUGAUACCAGAAACACAAAGUUCCCUUGGCAGCAAAUCUGAGCGAAACGAUCUAGAGCGC [theeternabot_sameState_MS2_Theo_A_30]; 70.6
UCGCGAUAGAGAAGGAGCGUCAACACCACUUAACAUGAGGAUCACCCAUGUGUUACUUUGUGACAGGUAGGUCGCUCUAGCGCUU [JR_Nu_ExcArginiB_Sub026]; 18.4
CAUACUUUAGUAUGUUAUGUGGACAGUGAUACCAGAUACGAAAGUAUCCCUUGGCAGCACAACAUGAGGAUCACCCAUGUAUUUU [Theophylline A 4]; 21.5

Shifting focus to the sequence that follows.
// returns apparent KD of MS2 coat protein for UGUAUGGACUGAAGGAGCGGAAGAUACCAUGAGGAUCACCCAUGGAAUAAGGCGAAAGCCUUCCAGGUAGGUCGCAGUCCAUACU with MS2 coat protein; value = 19.8

----------
- Tested on: MS2 coat protein
- protocol: apparent KD of MS2 coat protein; designed switch direction (-1 OFF switch, 1 ON switch): 1; higher = weaker reporter binding
- protocolConditions: input ligand: none
parameterMeasured: apparent KD of MS2 coat protein (nM)
Give bare numbers, in nM.

Below are worked cases with known answers.
GCUCGUGGUAUUGUCUACAUGAGGAUCACCCAUGUAGGUGCGGAGGAUAUUUACGUGUCUCAUGUAGAGAAGGCCGUCACGAGC [SameState NG3 #97] (Eterna round: R96, puzzle: Same State NG 3); 297
AGGAAACAUGAGGAUCACCCAUGUAAAAAAGUGGGAGGAUAUACUAGAAGAAACAAAAUAGUAGAAGGCCUAAAAA [75%, Ex sub1, 32] (Eterna round: R96, puzzle: Same State 1); 42.3

Shifting focus to the sequence that follows.
// returns apparent KD of MS2 coat protein for GCCGUAUACAUGAGGAUCACCCAUGUUGACGCGAGAGUGGAUGAGGAUAUCGAUGGGUUUCCCGUCGAGAAGGCGUGGGUCGGC [JL SSNG3 3.00] (Eterna round: R96, puzzle: Same State NG 3) with MS2 coat protein; value = 46.1
